Catalogue of binders with associated OD450 ratio sample/blank
- system: soluble IL-6R in cynomolgous plasma (cynomolgus monkey, UniProt A0A2K5WN54)
- protocolSummary: ELISA 2, periplasmic extract; competitor IL-6; cyno plasma
Write the value as a bare number.

IL6RPMP104B8 (VHH) VHH: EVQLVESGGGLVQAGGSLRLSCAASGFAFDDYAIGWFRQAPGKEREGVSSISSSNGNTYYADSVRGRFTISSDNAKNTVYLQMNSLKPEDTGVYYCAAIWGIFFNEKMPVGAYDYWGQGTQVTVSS: 0.735

In the following, a different binder is considered.
# input Tell me OD450 ratio sample/blank reported for IL6RPMP108D10 (VHH) VHH: EVQLVESGGGSVQAGGSLRLSCTASGRTFSDYDMGWFRQAPGKERECVAVIDTNGDNTLTVGSVKGRFAISRDNAKNTVYLQMNSLLPEDTAVYTCAAGAWSSLRSTAANYWGQGTQVTVSS
# output 0.761
